Hello, the source for this data is PubChem BioAssay AID1508591, in case you need it.

conditions: rat; liver microsomes; pH 7.4; 15.0 min; 1.0 µM

molecule	quantity_unit	prefix_operator	half-life
C#CC1(O)CCC2C3CCC4=C/C(=N/OCC(=O)NCC(=O)NC(C(=O)O)C(C)C)CC[C@]4(C)C3CC[C@@]21C (stereo partly drawn)	min	>	30
CC(=O)NC(c1cccs1)c1cc(Br)c2cccnc2c1O (stereo not drawn)	min	=	5.21
CN1CCC(N(Cc2cccs2)c2ccccc2)CC1	min	=	1.37
Cc1cccc(N2CCN(C(=O)Cn3ncc4c3-c3ccccc3OC4)CC2)c1C	min	=	2.76
O=C(Cc1cccc(OC(F)(F)F)c1)Nc1ccc(CCCCc2nnc(NC(=O)Cc3ccccn3)s2)nn1	min	=	20.9
Cc1ccc(-c2nnc(Nc3ccc(Br)cc3)c3ccccc23)cc1S(=O)(=O)N1CCN(C)CC1	min	=	1.31
c1ccc(-c2nc(N3CCCCCC3)c3ccccc3n2)nc1	min	=	2.18
O=C(Nc1ccc(N2CCN(c3ncccc3C(F)(F)F)CC2)nc1)c1cccs1	min	=	10.3
